TARGET_UNDER_TEST: cloned human or rodent CNS receptors, channels, and transporters (PDSP panel) (Homo sapiens, UniProt P35367)
Construct: expressed in transfected cells
Sequence (P35367 whole entry): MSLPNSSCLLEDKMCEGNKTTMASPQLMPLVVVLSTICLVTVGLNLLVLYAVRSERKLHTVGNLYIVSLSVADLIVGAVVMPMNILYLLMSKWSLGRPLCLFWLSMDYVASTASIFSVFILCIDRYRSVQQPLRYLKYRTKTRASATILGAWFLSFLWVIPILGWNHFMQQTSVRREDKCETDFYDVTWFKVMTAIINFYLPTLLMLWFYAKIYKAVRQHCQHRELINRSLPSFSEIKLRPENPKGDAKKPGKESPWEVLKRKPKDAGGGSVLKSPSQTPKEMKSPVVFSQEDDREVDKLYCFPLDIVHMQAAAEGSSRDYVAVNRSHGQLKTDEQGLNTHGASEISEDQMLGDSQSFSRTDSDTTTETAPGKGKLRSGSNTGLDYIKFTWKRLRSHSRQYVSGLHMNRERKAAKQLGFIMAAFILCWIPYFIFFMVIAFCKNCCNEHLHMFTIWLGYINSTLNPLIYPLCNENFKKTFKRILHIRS
PROTOCOL_DESCRIPTION: PDSP GPCR panel primary binding assays at 10 μM
EXPERIMENTAL_SETUP: H1; primary assay, mean inhibition
Procedure: GPCR panel: Screening against the receptors within the PDSP panel offers an assessment of off-target pharmacological activity at cloned human or rodent CNS receptors, channels, and transporters that could confound CNS-related phenotypes. A total of 46–47 primary binding assays were run in quadruplicate on these compounds at 10 μM, with follow-up secondary binding assays in 11-point dose-response in triplicate for select compounds versus select receptors. […]
PROPERTY_NAME: Mean % (%)
One number for each entry, in %.

# example entries with known answers
# COMPOUND, Mean % (%)
rows = [
    ("CCC(=O)N1CCC(NC(=O)Nc2ccc(OC(F)(F)F)cc2)CC1 [UNC10302681A, TPPU]", 74.57),
    ("O=C(NC1CC1)C(=O)C(Cc1ccccc1)NC(=O)[C@H]1CCC(=O)N1Cc1ccccc1 (stereo partly shown) [UNC10302676A, ABT-957 (Alicapistat)]", 47.25),
    ("CC(=O)N1CCC(NC(=O)NC23CC4CC(CC(C4)C2)C3)CC1 [UNC10302683A, AR9281]", 76.51),
]

Could you now consider this next compound?
Looking for the measured Mean % of CNc1nc(C)nc(N[C@H]2CCC[C@@H](C(=O)NCc3ccc(C#N)cc3C(F)(F)F)C2)n1 [UNC10302679A, GSK2256294A] , can you help?
71.69

---

Hi there, I'd appreciate the recorded Inhibition 2 for every entry that follows.
TARGET_UNDER_TEST: cloned human or rodent CNS receptors, channels, and transporters (PDSP panel) (Homo sapiens, UniProt P28223)
Construct: expressed in transfected cells
Sequence (P28223 whole entry): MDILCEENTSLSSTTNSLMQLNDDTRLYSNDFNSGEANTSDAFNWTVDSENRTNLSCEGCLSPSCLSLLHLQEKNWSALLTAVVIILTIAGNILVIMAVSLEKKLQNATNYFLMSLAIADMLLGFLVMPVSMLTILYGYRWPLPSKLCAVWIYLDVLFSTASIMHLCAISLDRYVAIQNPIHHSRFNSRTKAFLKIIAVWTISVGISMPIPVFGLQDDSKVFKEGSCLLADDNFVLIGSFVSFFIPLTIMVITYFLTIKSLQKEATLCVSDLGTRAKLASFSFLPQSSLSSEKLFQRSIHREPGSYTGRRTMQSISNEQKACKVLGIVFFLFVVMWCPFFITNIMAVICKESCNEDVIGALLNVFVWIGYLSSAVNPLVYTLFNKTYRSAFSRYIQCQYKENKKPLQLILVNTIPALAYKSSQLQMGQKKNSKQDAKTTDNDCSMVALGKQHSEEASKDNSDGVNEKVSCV
PROTOCOL_DESCRIPTION: PDSP GPCR panel primary binding assays at 10 μM
EXPERIMENTAL_SETUP: Receptor 5-HT2A; primary assay, 10 μM
One number for each entry, in %.

# example entries with known answers
# COMPOUND, Inhibition 2, %
data = [
    ("Cl.NC(=O)c1cnc(N[C@@H]2CCCC[C@@H]2N)nc1Nc1cccc(-n2nccn2)c1 [UNC10302682A, P505-15 (PRT06207 HCl)]", 2.61),
    ("O=c1oc2ccccc2cc1-c1cn2cc(Cc3ccc(F)cc3)sc2n1 [UNC10302680A, iMDK]", -11.86),
]

List Inhibition 2 for every entry below, keeping the order given.
1. CCCCNc1ncc2c(-c3ccc(CN4CCN(C)CC4)cc3)cn([C@H]3CC[C@H](O)CC3)c2n1 [UNC2025C, UNC2025]
2. c1cn2cc(-c3ccc4cn[nH]c4c3)nc(Nc3ccc(N4CCOCC4)cc3)c2n1 [UNC10302678A, Entospletinib (GS-9973)]

85.14
-14.98

---

TARGET_UNDER_TEST: cloned human or rodent CNS receptors, channels, and transporters (PDSP panel) (Homo sapiens, UniProt P14416)
Construct: expressed in transfected cells
Sequence (P14416 whole entry): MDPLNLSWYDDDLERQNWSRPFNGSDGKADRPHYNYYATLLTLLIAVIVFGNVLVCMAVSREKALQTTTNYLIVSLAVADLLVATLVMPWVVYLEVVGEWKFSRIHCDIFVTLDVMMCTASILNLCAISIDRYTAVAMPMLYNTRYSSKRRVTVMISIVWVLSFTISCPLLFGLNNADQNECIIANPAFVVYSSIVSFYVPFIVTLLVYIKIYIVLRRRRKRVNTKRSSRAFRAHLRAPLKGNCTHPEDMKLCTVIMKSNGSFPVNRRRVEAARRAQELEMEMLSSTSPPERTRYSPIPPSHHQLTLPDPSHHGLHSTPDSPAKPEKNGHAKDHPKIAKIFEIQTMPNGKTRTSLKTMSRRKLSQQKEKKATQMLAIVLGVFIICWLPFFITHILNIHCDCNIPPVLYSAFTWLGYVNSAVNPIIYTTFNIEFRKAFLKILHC
PROTOCOL_DESCRIPTION: PDSP GPCR panel primary binding assays at 10 μM
EXPERIMENTAL_SETUP: Receptor D2; primary assay, 10 μM
Hi there, I'd appreciate the recorded Inhibition 1 for every entry that follows.
One number for each entry, in %.

# MOLECULE, Inhibition 1 (%)
measured = [
    ("Cl.NC(=O)c1cnc(N[C@@H]2CCCC[C@@H]2N)nc1Nc1cccc(-n2nccn2)c1 [UNC10302682A, P505-15 (PRT06207 HCl)]", 17.73),
]

List Inhibition 1 for every entry below, keeping the order given.
1. O=c1oc2ccccc2cc1-c1cn2cc(Cc3ccc(F)cc3)sc2n1 [UNC10302680A, iMDK]
2. CCCCNc1ncc2c(-c3ccc(CN4CCN(C)CC4)cc3)cn([C@H]3CC[C@H](O)CC3)c2n1 [UNC2025C, UNC2025]
3. c1cn2cc(-c3ccc4cn[nH]c4c3)nc(Nc3ccc(N4CCOCC4)cc3)c2n1 [UNC10302678A, Entospletinib (GS-9973)]

[11.41, 11.9, 15.89]

---

System: cloned human or rodent CNS receptors, channels, and transporters (PDSP panel)
PROTOCOL_DESCRIPTION: PDSP GPCR panel primary binding assays at 10 μM
EXPERIMENTAL_SETUP: H4; primary assay, mean inhibition
PROPERTY_NAME: Mean % (%)
Numbers only, in %.

# example entries with known answers
# COMPOUND, TARGET_UNDER_TEST, UNITS, RESULT
measured = [
    ("CNc1nc(C)nc(N[C@H]2CCC[C@@H](C(=O)NCc3ccc(C#N)cc3C(F)(F)F)C2)n1 [UNC10302679A, GSK2256294A]", "cloned human or rodent CNS receptors, channels, and transporters (PDSP panel)", "%", -11.7),
    ("CCC(=O)N1CCC(NC(=O)Nc2ccc(OC(F)(F)F)cc2)CC1 [UNC10302681A, TPPU]", "cloned human or rodent CNS receptors, channels, and transporters (PDSP panel)", "%", -7.02),
    ("CC(=O)N1CCC(NC(=O)NC23CC4CC(CC(C4)C2)C3)CC1 [UNC10302683A, AR9281]", "cloned human or rodent CNS receptors, channels, and transporters (PDSP panel)", "%", -2.1),
    ("O=C(NC1CC1)C(=O)C(Cc1ccccc1)NC(=O)[C@H]1CCC(=O)N1Cc1ccccc1 (some centres unmarked) [UNC10302676A, ABT-957 (Alicapistat)]", "cloned human or rodent CNS receptors, channels, and transporters (PDSP panel)", "%", -11.52),
]

Could you now consider this next compound?
Looking for the measured Mean % of O=c1oc2ccccc2cc1-c1cn2cc(Cc3ccc(F)cc3)sc2n1 [UNC10302680A, iMDK] , can you help?
39.36

---

TARGET_UNDER_TEST: cloned human or rodent CNS receptors, channels, and transporters (PDSP panel) (Homo sapiens)
Construct: expressed in transfected cells
PROTOCOL_DESCRIPTION: PDSP GPCR panel primary binding assays at 10 μM
EXPERIMENTAL_SETUP: H2; primary assay, replicate 3
Hi there, I'd appreciate the recorded Inhibition 3 for every entry that follows.
Numbers only, in %.

# COMPOUND, UNITS, Inhibition 3
records = [
    ("CCC(=O)N1CCC(NC(=O)Nc2ccc(OC(F)(F)F)cc2)CC1 [UNC10302681A, TPPU]", "%", -19.51),
]

List Inhibition 3 for every entry below, keeping the order given.
1. O=C(NC1CC1)C(=O)C(Cc1ccccc1)NC(=O)[C@H]1CCC(=O)N1Cc1ccccc1 (some centres unmarked) [UNC10302676A, ABT-957 (Alicapistat)]
2. O=c1oc2ccccc2cc1-c1cn2cc(Cc3ccc(F)cc3)sc2n1 [UNC10302680A, iMDK]
3. CC(=O)N1CCC(NC(=O)NC23CC4CC(CC(C4)C2)C3)CC1 [UNC10302683A, AR9281]

1. -1.92
2. 9.61
3. -32.29

Looking for the measured Inhibition 3 of CNc1nc(C)nc(N[C@H]2CCC[C@@H](C(=O)NCc3ccc(C#N)cc3C(F)(F)F)C2)n1 [UNC10302679A, GSK2256294A] , can you help?
-19.51

---

Test system: cloned human or rodent CNS receptors, channels, and transporters (PDSP panel)
PROTOCOL_DESCRIPTION: PDSP GPCR panel primary binding assays at 10 μM
EXPERIMENTAL_SETUP: H4; primary assay, replicate 3
Experimental: GPCR panel: Screening against the receptors within the PDSP panel offers an assessment of off-target pharmacological activity at cloned human or rodent CNS receptors, channels, and transporters that could confound CNS-related phenotypes. A total of 46–47 primary binding assays were run in quadruplicate on these compounds at 10 μM, with follow-up secondary binding assays in 11-point dose-response in triplicate for select compounds versus select receptors. […]
Hi there, I'd appreciate the recorded Inhibition 3 for every entry that follows.
Numbers only, in %.

# example entries with known answers
# COMPOUND, UNITS, Inhibition 3
measured = [
    ("O=C(NC1CC1)C(=O)C(Cc1ccccc1)NC(=O)[C@H]1CCC(=O)N1Cc1ccccc1 (some centres unmarked) [UNC10302676A, ABT-957 (Alicapistat)]", "%", -23.94),
    ("CNc1nc(C)nc(N[C@H]2CCC[C@@H](C(=O)NCc3ccc(C#N)cc3C(F)(F)F)C2)n1 [UNC10302679A, GSK2256294A]", "%", -13.62),
    ("CC(=O)N1CCC(NC(=O)NC23CC4CC(CC(C4)C2)C3)CC1 [UNC10302683A, AR9281]", "%", -25.38),
    ("O=c1oc2ccccc2cc1-c1cn2cc(Cc3ccc(F)cc3)sc2n1 [UNC10302680A, iMDK]", "%", 40.86),
]

Could you now consider this next compound?
Looking for the measured Inhibition 3 of CCC(=O)N1CCC(NC(=O)Nc2ccc(OC(F)(F)F)cc2)CC1 [UNC10302681A, TPPU] , can you help?
-7.38

The measured values listed here are drawn from paper PMC9005681.
